Source of measurements: ChEMBL document CHEMBL3044537

assay summary: Biodistribution in Rattus norvegicus Wistar albino (rat) lung at 74 MBq/umol, iv administered 60 min post dose of non radiolabelled compound measured at 30 min
Type: ADME, organism-based
applied conditions: read-out: Drug uptake
quantity measured: tissue uptake at 0.5 h (%ID/g)

• O=C(O[C@@H]1Cc2c(cc(O)c([131I])c2O)O[C@@H]1c1cc(O)c(O)c(O)c1)c1cc(O)c(O)c(O)c1 [[131I]-EPIGALLOCATECHIN GALLATE] = 0.25

###

assay summary: Metabolic stability in Homo sapiens (human) serum at 2 hr
Assay type: ADME
applied conditions: read-out: Stability
quantity measured: remaining at 2 h (%)

• O=C(O[C@@H]1Cc2c(cc(O)c([131I])c2O)O[C@@H]1c1cc(O)c(O)c(O)c1)c1cc(O)c(O)c(O)c1 [[131I]-EPIGALLOCATECHIN GALLATE] = 87
